Measured values drawn from PubChem BioAssay AID602123 for this set.

molecular target: Lon protease (Escherichia coli (strain K12)) (UniProt P0A9M0); test: inhibitors of E. coli Lon protease, primary screen, biochemical, fluorescence polarization (AID 602123);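 further: 0% = enzyme with probe and DMSO and 100% = no enzyme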; conditions: purified E. coli Lon protease, at 7.94 µM
Sequence (P0A9M0 whole entry, looked up): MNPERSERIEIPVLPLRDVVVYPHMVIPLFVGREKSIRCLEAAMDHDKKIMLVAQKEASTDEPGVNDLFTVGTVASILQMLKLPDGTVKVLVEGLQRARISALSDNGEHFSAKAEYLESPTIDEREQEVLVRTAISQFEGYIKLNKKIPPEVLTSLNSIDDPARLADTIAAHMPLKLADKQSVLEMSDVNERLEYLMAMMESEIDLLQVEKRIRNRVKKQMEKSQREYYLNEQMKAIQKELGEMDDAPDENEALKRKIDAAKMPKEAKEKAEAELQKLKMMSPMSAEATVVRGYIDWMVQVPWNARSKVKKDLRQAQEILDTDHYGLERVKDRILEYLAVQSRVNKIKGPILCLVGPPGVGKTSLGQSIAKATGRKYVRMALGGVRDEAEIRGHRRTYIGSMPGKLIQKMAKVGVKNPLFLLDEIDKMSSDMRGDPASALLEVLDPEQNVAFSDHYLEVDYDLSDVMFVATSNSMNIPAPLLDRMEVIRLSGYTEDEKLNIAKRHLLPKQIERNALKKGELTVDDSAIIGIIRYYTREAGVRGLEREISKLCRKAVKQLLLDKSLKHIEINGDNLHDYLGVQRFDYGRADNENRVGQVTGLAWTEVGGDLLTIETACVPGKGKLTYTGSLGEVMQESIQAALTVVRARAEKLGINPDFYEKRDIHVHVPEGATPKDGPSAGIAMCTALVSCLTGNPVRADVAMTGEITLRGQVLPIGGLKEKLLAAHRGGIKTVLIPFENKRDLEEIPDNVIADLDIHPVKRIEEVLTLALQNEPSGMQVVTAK
About 1,500 (0.42%) of roughly 360,000 compounds were called active. No stated cut-off is given here; in the data, active means inhibition above about 13% (passing the limit was not always enough); inactive means the rest. This is one part of a sample in which actives are shown more often than they occur.
// one of active, inactive, no free text

Smiles Code | Category Label
COc1ccc(NC(=O)CN2C(=O)COc3ccc(S(=O)(=O)N4CCOCC4)cc32)c(OC)c1 | inactive
O=C(Nc1ccc(F)c(Cl)c1)C1CCN(S(=O)(=O)c2cccnc2)CC1 | inactive
Nc1ccccc1/C=N\N=C/c1ccccc1N | active
Cc1ccc(S(=O)(=O)CCC(=O)OCc2ccccc2)cc1 | active

Now turn to the next compound.
Exam item: Answer briefly: the call reported for O=C1NC[C@@H](CCCCN2CCN(CCc3ccc(O)cc3)C(=O)C2=O)N(CC2CCCCC2)C1=O in this assay.
Marked response: inactive

====

target: Lon protease (Escherichia coli (strain K12)); experiment: inhibitors of E. coli Lon protease, primary screen, biochemical, fluorescence polarization (AID 602123);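 further: 0% = enzyme with probe and DMSO and 100% = no enzyme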; details: purified E. coli Lon protease, at 7.94 µM
Hit rate of the full screen: of about 360,000 compounds, about 1,500 (0.42%) were called active. Cut-off read from the data, not from the text of the source: active = inhibition above about 13% (passing the limit was not always enough); inactive = the rest. The list comes from a sample in which actives are over-represented; it also holds close analogues and randomly drawn compounds.
// one of yes for active, no for inactive, no free text

Compound | Category Label
CCc1ccccc1NC(=O)CSc1nnc(CCNC(=O)OC(C)(C)C)o1 | no
CSc1ccc(C(=O)C2CCCN(C(=O)c3ccc(C)nc3)C2)cc1 (stereo not given) | no
Cc1ccccc1Nc1nc(N)nc(CN2CCN(c3ccccn3)CC2)n1 | yes
O=C1C(C=NCC2CCCO2)=C(O)c2ccccc21 (stereo not given) | no

Exam item: Answer briefly: the call reported for O=C1c2cccc3c([N+](=O)[O-])ccc(c23)C(=O)N1CC1CCCO1 (stereo not given) in this assay.
Marked response: yes

Exam item: // repeat for COc1cccc2c1C(=O)c1c(O)c3c(c(O)c1C2=O)CC(O)(C(C)=NNC(=O)c1ccc(Cl)c(Cl)c1)CC3OC1CC(N)C(O)C(C)O1 (stereo not given) and report
Marked response: yes

Exam item: // repeat for O=C(/C=C/c1cccc(C(F)(F)F)c1)N1CCN(c2ccccn2)CC1 and report
Marked response: no

Exam item: // repeat for CC(C)(C)C(=O)c1c(N)[nH]c(C(=O)c2ccccc2)c1-c1ccc(F)cc1 and report
Marked response: no

Exam item: // repeat for CC1(C)CC(N2CCN(C(c3ccccc3)c3ccccc3)CC2)=CC(=[N+]2CCCCC2)C1 and report
Marked response: no

Exam item: // repeat for CCn1c(CSc2nncn2-c2ccc(OC)cc2)nc2cc(S(=O)(=O)N(C)C)ccc21 and report
Marked response: no

====

biological target: Lon protease (Escherichia coli (strain K12)) (UniProt P0A9M0); experiment: inhibitors of E. coli Lon protease, primary screen, biochemical, fluorescence polarization (AID 602123);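 further: 0% = enzyme with probe and DMSO and 100% = no enzyme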; conditions: purified E. coli Lon protease, at 7.94 µM, hits give high values
The campaign covered roughly 360,000 compounds. About 1,500 (0.42%) were called active. The entries come from a sample that favours actives as a whole.
In this section, each of the compounds is paired with its reported inhibition.
Provide the reading as a plain figure in %.

Exam item: Given the compound O=S1(=O)CC(N2CCN(CCO)CC2)CN1Cc1cn(Cc2ccc(Cl)cc2)nn1 (stereo not given) , what is its reported inhibition?
Marked response: -4.7

Exam item: // repeat for COc1ccc(C(=O)NCc2nnc(SCC(=O)NC3=NCCS3)n2C)cc1 and report
Marked response: 1.04

Exam item: // repeat for CC1=NN(C(=O)CCCc2ccccc2)C(O)(C(F)(F)F)C1 (stereo not given) and report
Marked response: -1.58

Exam item: // repeat for CC(C)c1nc2sc3c(c2c(=O)n1N)CC(C)(C)OC3 and report
Marked response: -4.29

Exam item: // repeat for O=C1C2C3C=CC(C4CC34)C2C(=O)N1/N=C/c1ccc(-c2ccccc2[N+](=O)[O-])o1 (stereo not given) and report
Marked response: 15.8

====

target: Lon protease (Escherichia coli (strain K12)); test: inhibitors of E. coli Lon protease, primary screen, biochemical, fluorescence polarization (AID 602123);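 further: 0% = enzyme with probe and DMSO and 100% = no enzyme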; conditions: purified E. coli Lon protease, at 7.94 µM, hits give high values
Out of some 360,000 compounds screened, about 1,500 (0.42%) were called active. Shown is part of a subset that was picked to be rich in actives.
In this section, each of the molecules is paired with its reported inhibition.
Provide the reading as a plain figure in %.

Use these answered entries as a reference point.
Molecule | inhibition / %
COc1ccc(-c2ocnc2C(=O)Nc2ccc3c(c2)CCC3)cc1 | 11.4
CCOc1cc(S(=O)(=O)NC2CC(C)(C)NC(C)(C)C2)ccc1F | -9.09
CC(C)NC(=O)N1Cc2cc(C(=O)NCC(F)(F)F)nc(-c3cccc(-c4cc5ccccc5o4)c3)c2[C@@H]1CCO | 1.84
Cc1ccc(SCC(=O)Nc2nncs2)cc1 | 6.67
Cc1cc(OCC(=O)N(C)c2c(N)n(Cc3ccccc3)c(=O)[nH]c2=O)c(C(C)C)cc1Cl | -1.64
CCCS(=O)(=O)N1CCC(C(=O)NCCCN(C)Cc2ccccc2)CC1 | -3.31
CCn1c(CC(=O)Nc2ccc(C)cc2)nnc1SCC(=O)Nc1nc(C)cs1 | 0.33
CC(=O)NC(=S)Nc1ccc(NC(=S)NC(=O)c2ccc([N+](=O)[O-])cc2)cc1 | 21.3
Cc1ccc(C(=O)OCC(=O)NCc2cc(C)c(O)c(C)c2)cc1S(=O)(=O)N1CCCCC1 | -7.17
O=C(CSc1n[nH]c(-c2cccs2)n1)N1CCCCC1 | 0.33

Exam item: Given the molecule Cc1ccc(-c2nc3c(C)cc(Br)cn3c2Cc2ccccc2)cc1 , what is its reported inhibition?
Marked response: -0.26

Exam item: // repeat for O=C(Cc1ccc(S(=O)(=O)N2CCCC2)s1)NC1CCCCCC1 and report
Marked response: -1.79

Exam item: // repeat for CC(C)c1ccc(S(=O)(=O)N2CCN(C(C)C(=O)NC3CCCC3)CC2)cc1 (configuration not stated) and report
Marked response: 8.04

Exam item: // repeat for CCCN1C(=O)C(NC(C)=O)c2cc(OC)ccc21 (configuration not stated) and report
Marked response: 16.3

Exam item: // repeat for COc1cccc(NC(=O)N2C3CCCC2CC(NC(C)=O)C3)c1 (configuration not stated) and report
Marked response: -2.6

Exam item: // repeat for CCCN1C2CCCC1CC(NC(=O)c1cccc(OC)c1)C2 (configuration not stated) and report
Marked response: -6.23

Exam item: // repeat for CC(C(=O)NC1CCCC1)N1CCN(S(=O)(=O)c2ccccc2Cl)CC1 (configuration not stated) and report
Marked response: 17.4

====

target: Lon protease (Escherichia coli (strain K12)); assay: inhibitors of E. coli Lon protease, primary screen, biochemical, fluorescence polarization (AID 602123);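 further: 0% = enzyme with probe and DMSO and 100% = no enzyme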; details: purified E. coli Lon protease, at 7.94 µM
Hit rate of the full screen: of about 360,000 compounds, about 1,500 (0.42%) were called active. Rule as the data show it: active = inhibition above about 13% (passing the limit was not always enough); inactive = the rest. The entries come from a sample that favours actives as a whole.
// one of active, inactive, no free text

Reference set, count: 2
Molecule | System Name | Category Label
NC(=O)c1nnsc1-c1ccc(-c2snnc2C(N)=O)cc1 | Lon protease (Escherichia coli (strain K12)) | inactive
Cc1ccc2nc(N3C(=O)C(O)=C(C(=O)c4ccco4)C3c3cccc(O)c3)sc2c1 (configuration not stated) | Lon protease (Escherichia coli (strain K12)) | inactive

Exam item: Answer briefly: the call reported for CCN(CC(=O)NCc1cccs1)C(=O)c1ccccc1F in this assay.
Marked response: inactive

Exam item: // repeat for O=C(C1CC1)N1N=C(c2ccc(Br)cc2)CC1(O)C(F)(F)F (configuration not stated) and report
Marked response: inactive

Exam item: // repeat for Cc1ccn(C(CC(=O)c2ccc(Br)cc2)C(=O)O)n1 (configuration not stated) and report
Marked response: inactive

Exam item: // repeat for Cc1ccc(S(=O)(=O)N2CCN(C(=O)CSc3cc(C)ccc3C)CC2)c(C)c1 and report
Marked response: inactive

Exam item: // repeat for C=CCN1CCN(C(=O)CCCc2ccccc2)CC1 and report
Marked response: inactive

Exam item: // repeat for Cc1ccc(N=C2SCCCN2C(=O)c2cccc(N3C(=O)CCC3=O)c2)cc1Cl and report
Marked response: inactive

Exam item: // repeat for CCc1ccc(CN2C(=O)c3ccccc3C2C(=O)NCC2CCCO2)cc1 (configuration not stated) and report
Marked response: inactive

Exam item: // repeat for CCCc1cc(=O)[nH]c(SCC(=O)Nc2ccc(S(=O)(=O)N3CCCC3)cc2)n1 and report
Marked response: inactive

====

target: Lon protease (Escherichia coli (strain K12)) (UniProt P0A9M0); test: inhibitors of E. coli Lon protease, primary screen, biochemical, fluorescence polarization (AID 602123);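 further: 0% = enzyme with probe and DMSO and 100% = no enzyme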; settings: purified E. coli Lon protease, at 7.94 µM, hits give high values
The campaign covered roughly 360,000 compounds. About 1,500 (0.42%) were called active. The entries come from a sample that favours actives as a whole.
Endpoint: inhibition

Exam item: Given the compound CC(C)(C(=O)N1CCC1(C)C(=O)NS(=O)(=O)c1ccc(Br)cc1)c1ccccc1 (stereo not given) , what is its reported inhibition?
Marked response: -2.78% (inactive)

Exam item: // repeat for Cc1cccn2c(=O)c3cc(C#N)c(=NC(=O)c4cccnc4)n(CC4CCCO4)c3nc12 (stereo not given) and report
Marked response: 21.1% (active)

Exam item: // repeat for Cc1ccccc1Nc1nc(N)nc(CSc2nnc3ccccn23)n1 and report
Marked response: 7.49% (inactive)

Exam item: // repeat for Cc1cc(OCCN2CCCC2)cc(C(C)C)c1 and report
Marked response: 3.29% (inactive)

Exam item: // repeat for CC1C(c2ccccc2)=[N+]([O-])C2(CCCC2)N1O (stereo not given) and report
Marked response: -2.56% (inactive)

Exam item: // repeat for CCN(CC)CCCNC(=O)c1cn(C)c2ccc(S(=O)(=O)N(C)C3CCCCC3)cc2c1=O and report
Marked response: 21.3% (active)

Exam item: // repeat for COCCCn1c(C(=O)NC2CCCCC2)cc2c(=O)n3cccc(C)c3nc21 and report
Marked response: -13.7% (inactive)

Exam item: // repeat for CCn1cc(C(=O)NCCCN2CCCCCC2)c(=O)c2cc(S(=O)(=O)N3CCc4ccccc4C3)ccc21 and report
Marked response: 1.65% (inactive)

Exam item: // repeat for COc1cc2cc(CN(CCN3CCCC3)C(=O)Nc3ccccc3Cl)c(=O)[nH]c2cc1OC and report
Marked response: -12.8% (inactive)

Exam item: // repeat for Cc1cccn2c(=O)c3cc(C#N)c(=O)n(CCCN4CCOCC4)c3nc12 and report
Marked response: -13.8% (inactive)
